assay: Tmax in healthy human plasma at 750 mg by HPLC-tandem mass spectrometry method; assay type: ADME, organism-based
TEST_READOUT: Tmax (h)
Numbers only, in h.

Give the value of Tmax reported for the following: CCc1nn(CCO)c(CC)c1Oc1cc(C#N)cc(C#N)c1 [LERSIVIRINE]
5

---

experiment: AUC (infinity) in healthy human plasma at 750 mg by HPLC-tandem mass spectrometry method; format: ADME, organism-based; design: dose 750 mg, time infinity
TEST_READOUT: AUC(0-inf) (ng·h/mL)
One number for each entry, in ng·h/mL.

Give the value of AUC(0-inf) reported for the following: CCc1nn(CCO)c(CC)c1Oc1cc(C#N)cc(C#N)c1
11000

---

experiment: Tmax in healthy human plasma at 750 mg coadministered with 20 ml of antacid by HPLC-tandem mass spectrometry method; type: ADME, organism-based
TEST_READOUT: Tmax

Give the value of Tmax reported for the following: CCc1nn(CCO)c(CC)c1Oc1cc(C#N)cc(C#N)c1
2 h

---

test: AUC (infinity) in healthy human plasma at 750 mg coadministered with 20 ml of antacid by HPLC-tandem mass spectrometry method; assay type: ADME, organism-based; parameters: dose 750 mg, time infinity
TEST_READOUT: AUC(0-inf) (ng·h/mL)
Give bare numbers, in ng·h/mL.

Give the value of AUC(0-inf) reported for the following: CCc1nn(CCO)c(CC)c1Oc1cc(C#N)cc(C#N)c1 [LERSIVIRINE]
11200

---

assay: Half life in healthy human plasma at 750 mg by HPLC-tandem mass spectrometry method; format: ADME, organism-based
TEST_READOUT: half-life (h)
Give bare numbers, in h.

Give the value of half-life reported for the following: CCc1nn(CCO)c(CC)c1Oc1cc(C#N)cc(C#N)c1
6.91

---

experiment: Cmax in healthy human plasma at 750 mg after 24 hrs coadministered with 20 ml of antacid by HPLC-tandem mass spectrometry method; type: ADME, organism-based; set-up: dose 750 mg
TEST_READOUT: Cmax (ng/mL)
Give bare numbers, in ng/mL.

Give the value of Cmax reported for the following: CCc1nn(CCO)c(CC)c1Oc1cc(C#N)cc(C#N)c1 [LERSIVIRINE]
1450

---

assay: Half life in healthy human plasma at 750 mg coadministered with 20 ml of antacid by HPLC-tandem mass spectrometry method; type: ADME, organism-based
TEST_READOUT: half-life (h)
Answers are plain numbers, in h.

Give the value of half-life reported for the following: CCc1nn(CCO)c(CC)c1Oc1cc(C#N)cc(C#N)c1 [LERSIVIRINE]
6.22
